Origin of values: patent US20240383999A1

Target: T1, Human recombinant CD5L protein (Sino Biological, Catalog Number 10791-H08H) (human, UniProt O43866 20-347)
T1 construct: Bought protein; also called human CD5L; CD5L-His; not shown: 6xHIS-tag
T1 sequence (looked up): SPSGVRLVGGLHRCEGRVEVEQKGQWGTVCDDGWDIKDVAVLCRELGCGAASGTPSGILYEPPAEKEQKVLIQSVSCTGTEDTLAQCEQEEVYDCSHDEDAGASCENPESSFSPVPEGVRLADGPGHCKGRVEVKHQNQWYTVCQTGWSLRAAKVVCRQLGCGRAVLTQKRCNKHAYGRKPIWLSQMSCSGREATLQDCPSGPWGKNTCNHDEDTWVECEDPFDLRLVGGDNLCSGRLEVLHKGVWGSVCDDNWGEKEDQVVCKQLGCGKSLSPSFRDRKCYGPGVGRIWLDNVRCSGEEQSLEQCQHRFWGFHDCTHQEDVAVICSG
Assay: titration ELISA, human CD5L coated on plate
Hi! Just check whether EC50 is below 0.06 µg/mL. Below gives class 1, equal or above gives class 0.

As a guide, the following entries are already answered.
R-45 (antibody, V domains shown) VH: QSVKESGGRLVTPGTPLTLTCTVSGFSINDFHMCWVRQAPGKGLEYIGMIGTGGSAYYATWTKGRFTISRTSTTVDLKITSPTTEDTATYFCARRDWSDGGYSLLWGQGTLVTVSS VL: ELDLTQTPASVSEPVGGTVTIKCQASQSIRTYLNWYQQKPGQPPKLLIYSASTLASGIPSRFKGSGSGTQFTLTISDLECADAATYYCQQGYYWSDVENTFGGGTEVEIN ... class 0
R-11 (antibody, V domains shown) VH: QSVKESGGDLVKPGASLTLTCTASGFDFSSNTMCWVRQAPGKGLEYIGYISYSGATHYASWAKGRFTISKTLSTTVTLQMTSLTDADTATYFCARDRGYVDGSYYGDFNLWGPGTLVTVSS VL: ELVMTQTPSSASEPVGGTVTIKCQASQSIASRLAWFQQKPGQPPKLLIYRASTLESGVSSRFKGSGFGTEFTLTISDLECADAATYYCQSYYGSGYGKTFGGGTDVVVK ... class 1
R-4 (antibody, V domains shown) VH: QSVEESGGRLVTPGTPLTLTCTASGFSLSSYYMTWVRQAPGKGLEYIGIISDRGSTYYASWAKGRFTIAKTSSTTVDLKLTSLTTEDTATYFCYRGVDGSGGYAAGDLWGQGTLVTISS VL: ELVLTQTPASVEAAVGGTVTIKCQASEDIYSYFAWYQQKPGQRPRLLIYEASKVASGVPSRFKGGGSGTQFTLTISDLECADAATYYCQNNFYMIGDDYGGTFGGGTEVEIK ... class 0

Now for a further binder.
[ask] Hi there! Is EC50 for R-34 (antibody, V domains shown) VH: QSVKESGGRLVTPGTPLTLTCTVSGFSLSSSGMSWVRQAPGKGLEWIGLTFPSGSASYASWAKGRFTVSRTSTTVDLNLTSPTTEDTATYFCAHVGATTGRDFWGQGTLVTVSS VL: ELVMTQTASSVSAAVGGTVTISCQSSQNIYNNRWSWYQQKPGQPPKLLIYQASTLASGVPSRFKGSGSGTQFTLTISGVQCDDAATYYCAGGYSGTIFTFGGGTELEIK below 0.06 µg/mL, do you know?
[reply] class 0
